Catalogue of Population Tubulin-Different-Phenotype (%) values
- Tested on: U2OS
- Protocol: Multiplex assay against U2OS
- Assay type: toxicity, cell-based
- Experimental parameters: human, 24 h, 10 µM, compound concentration 10 uM, replicate 2
State the answer as a number, implicitly in %.

Worked examples, 3 molecules total:
{"Molecule": "CC(C)Oc1ccc(C(=O)N[C@H](CNC(=O)CN(C)C)Cc2ccc(-c3cn4cccc([C@H](C)O)c4n3)cc2)cc1Cl [GSK-923295A]", "Readout unit": "%", "Reading": 100}
{"Molecule": "CNc1oc(-c2cccc3ccccc23)nc1C#N", "Readout unit": "%", "Reading": 26}
{"Molecule": "Cc1cc2c(cc1N1C(=O)c3cccc4c(CCCO)ccc(c34)C1=O)n(C)c(=O)n2C", "Readout unit": "%", "Reading": 76}

Query: I'd like to know its Population Tubulin-Different-Phenotype (%). The molecule in question is `Nc1ccc(C(=O)Nc2cccc(-c3nc(N4CCOCC4)c4oc5ncccc5c4n3)c2)cn1`
Reply: 100

Query: I'd like to know its Population Tubulin-Different-Phenotype (%). The molecule in question is `COc1cc2c(Nc3ccc(NC(=O)c4ccccc4)cc3)ncnc2cc1OCCCN1CCOCC1`
Reply: 22

Query: I'd like to know its Population Tubulin-Different-Phenotype (%). The molecule in question is CN(C)CCOc1ccc(-c2nc(-c3ccncc3)c(-c3ccc4c(c3)CC/C4=N\O)[nH]2)cc1 [SB590885]
Reply: 37

Query: I'd like to know its Population Tubulin-Different-Phenotype (%). The molecule in question is N#Cc1cnc(Nc2cc(NC[C@H]3CNCCO3)c(C(F)(F)F)cn2)cn1 [SRA-737]
Reply: 12

Query: I'd like to know its Population Tubulin-Different-Phenotype (%). The molecule in question is `COc1cc2c(NC3CCN(C(C)C)CC3)nc(N3CCC(F)(F)CC3)nc2cc1OCCCN1CCCC1`
Reply: 96

Query: I'd like to know its Population Tubulin-Different-Phenotype (%). The molecule in question is CNC(=O)c1cc(Oc2ccc(NC(=O)Nc3cc(C(C)(C)C)nn3-c3ccc4ncccc4c3)c(F)c2)ccn1 [REBASTINIB]
Reply: 97

* * *

- Test system: HEK-293T
- Protocol: Multiplex assay against HEK293T
- Format: toxicity, cell-based
- Experimental parameters: human, 12 h, 10 µM, compound concentration 10 uM, replicate 1
Catalogue of Population Mitochondria Different-Phenotype (%) values
State the answer as a number, implicitly in %.

Query: I'd like to know its Population Mitochondria Different-Phenotype (%). The compound in question is `N#Cc1cnc(Nc2cc(NC[C@H]3CNCCO3)c(C(F)(F)F)cn2)cn1`
Reply: 6

Query: I'd like to know its Population Mitochondria Different-Phenotype (%). The compound in question is `Cl.Cl.Nc1ncnc2c1c(-c1cccc(OCc3ccccc3)c1)cn2[C@H]1C[C@@H](CN2CCC2)C1`
Reply: 100

Query: I'd like to know its Population Mitochondria Different-Phenotype (%). The compound in question is `O=C(O)c1ccc2cc(-c3ccc(O)c(C45CC6CC(CC(C6)C4)C5)c3)ccc2c1`
Reply: 52

Query: I'd like to know its Population Mitochondria Different-Phenotype (%). The compound in question is `CCOc1cc2ncc(C#N)c(Nc3ccc(OCc4cccc(F)c4)c(Cl)c3)c2cc1NC(=O)/C=C/CN(C)C`
Reply: 16

Query: I'd like to know its Population Mitochondria Different-Phenotype (%). The compound in question is CCC(=O)O[C@]1(C(=O)SCF)[C@H](C)C[C@H]2[C@@H]3C[C@H](F)C4=CC(=O)C=C[C@]4(C)[C@@]3(F)[C@@H](O)C[C@@]21C [FLUTICASONE PROPIONATE]
Reply: 89

Query: I'd like to know its Population Mitochondria Different-Phenotype (%). The compound in question is `CC(C)N1CCC(C)(C)c2cc(C#Cc3ccc(C(=O)O)cc3)ccc21`
Reply: 66

Query: I'd like to know its Population Mitochondria Different-Phenotype (%). The compound in question is `CCc1cc2c(cc1CC)CC(NC[C@H](O)c1ccc(O)c3[nH]c(=O)ccc13)C2`
Reply: 61

Query: I'd like to know its Population Mitochondria Different-Phenotype (%). The compound in question is CN(C)C/C=C/C(=O)Nc1cc2c(Nc3ccc(F)c(Cl)c3)ncnc2cc1O[C@H]1CCOC1.O=C(O)/C=C\C(=O)O.O=C(O)/C=C\C(=O)O [AFATINIB DIMALEATE]
Reply: 35

Query: I'd like to know its Population Mitochondria Different-Phenotype (%). The compound in question is `CNc1oc(-c2cccc3ccccc23)nc1C#N`
Reply: 1

Query: I'd like to know its Population Mitochondria Different-Phenotype (%). The compound in question is `CC(C)(C)c1cnc(CSc2cnc(NC(=O)C3CCNCC3)s2)o1`
Reply: 17

Query: I'd like to know its Population Mitochondria Different-Phenotype (%). The compound in question is `CC(=O)c1cc(-c2cc(C(=O)NC3CC3)ccc2C)c2ncccn12`
Reply: 81

Query: I'd like to know its Population Mitochondria Different-Phenotype (%). The compound in question is `Cc1cc2c(cc1N1C(=O)c3cccc4c(CCCO)ccc(c34)C1=O)n(C)c(=O)n2C`
Reply: 92

Query: I'd like to know its Population Mitochondria Different-Phenotype (%). The compound in question is `COc1cc2c(NC3CCN(C(C)C)CC3)nc(N3CCC(F)(F)CC3)nc2cc1OCCCN1CCCC1`
Reply: 100

Query: I'd like to know its Population Mitochondria Different-Phenotype (%). The compound in question is `CNC(=O)c1cc(Oc2ccc(NC(=O)Nc3cc(C(C)(C)C)nn3-c3ccc4ncccc4c3)c(F)c2)ccn1`
Reply: 34

Query: I'd like to know its Population Mitochondria Different-Phenotype (%). The compound in question is `Cl.Cl.NC1(c2ccc(-c3nc4ccn5c(=O)[nH]nc5c4cc3-c3ccccc3)cc2)CCC1`
Reply: 27

Query: I'd like to know its Population Mitochondria Different-Phenotype (%). The compound in question is `Nc1nc2c(c(N3CCNCC3)n1)CCC1=C2[C@@H]2CCCC[C@@H]2O1`
Reply: 97

Query: I'd like to know its Population Mitochondria Different-Phenotype (%). The compound in question is `CCOc1cc(N2CCC(O)CC2)ccc1Nc1ncc2c(n1)N(C1CCCC1)CCC(=O)N2C`
Reply: 5
